Test: Cytotoxicity against HEL
Assay type: cell-based
Details: human, HEL cells
Can you tell me log10 of CC50 for the items I'm about to list?
// do not treat as linear: log10 of CC50, unit µg/mL

Known results for compounds:
O=C(COc1cccc2ccccc12)N/N=C/c1ccc(Br)cc1 = 2.00
COc1ccc(OC)c(/C=N/NC(=O)COc2cccc3ccccc23)c1 = 1.76
O=C(COc1cccc2ccccc12)N/N=C/c1ccccc1Cl = 1.80

Look at each compound and report its log10 of CC50.
1. O=C(COc1cccc2ccccc12)N/N=C/c1ccccc1[N+](=O)[O-]
2. O=C(COc1cccc2ccccc12)N/N=C/c1cccc(Br)c1
3. C/C(=N\NC(=O)COc1cccc2ccccc12)c1ccccc1O

Output:
[2.00, 1.69, 0.60]

All values here come from ChEMBL document CHEMBL3045401.
